Measured values drawn from PubChem BioAssay AID651965 for this set.

Biological target: ATP-dependent Clp protease proteolytic subunit (Bacillus subtilis (strain 168))
Test: qHTS Assay for Activators of ClpP; further: the source files actives as falling curves though it sought activators and does not explain the sign; nearly all actives have a fitted effect of over 65% in size
Conditions: purified B. subtilis ClpP, FRET peptide cleavage, 20 min; series mostly up to 57.5 µM
Out of some 340,000 compounds screened, about 6,400 (1.9%) were called active. Another 4% or so got no clear call; they are omitted. The call rests on the fitted dose curve; in most records, active means well fitted falling curve with a large enough effect; inconclusive means small, poorly fitted or top-dose-only effect; inactive means no such curve, though single readings can be large or run the other way. The list comes from a sample in which actives are over-represented; it also holds close analogues and randomly drawn compounds.
Parameter call: string, one of YES = active, NO = inactive

Name the outcome recorded for `c1ccc(CCc2ccccn2)cc1` in the assay. NO

Name the outcome recorded for `O=C(Nc1ccc(Cl)cc1)c1csc([C@H]2C[C@H](O)[C@@H](CO)O2)n1` in the assay. NO

Name the outcome recorded for `O=C(Nc1ccc2nc(SCC(=O)N3CCCc4ccccc43)sc2c1)c1ccc(Cl)cc1` in the assay. YES

Name the outcome recorded for `O=C(N/N=C\c1ccc(Br)cc1)c1ccc(Cn2cccn2)o1` in the assay. YES

Name the outcome recorded for `CN(C)c1ccc(/C=N/NC(=O)c2ccc(Cn3cc(Br)cn3)o2)cc1` in the assay. NO

Name the outcome recorded for `O=c1cc(O)nc(SCc2ccccc2Cl)[nH]1` in the assay. YES

Name the outcome recorded for `C[N+]1(CC(=O)c2cccs2)CCOCC1` in the assay. NO

Name the outcome recorded for O=C(NCc1ccc(F)cc1)c1cc(C2CCCCN2C(=O)C2CCCCC2)on1 (stereo not drawn) in the assay. NO

Name the outcome recorded for `COc1ccc(Cn2cccc(NC(=O)Nc3ccc(C#N)cc3)c2=O)cc1` in the assay. YES

Name the outcome recorded for O=C(NCC(c1cccs1)N1CCOCC1)c1cc(-c2ccccn2)nc2ccccc12 (stereo not drawn) in the assay. NO

Name the outcome recorded for `COc1ccccc1-c1nnc(-c2ccc(F)cc2)o1` in the assay. NO

Name the outcome recorded for `CCn1c(=O)c2cc(C(=O)Nc3cccc(C(C)=O)c3)sc2c2ccccc21` in the assay. NO

Name the outcome recorded for `CCC(=O)Nc1ccc2nc(SCC(=O)N3CCc4ccccc43)sc2c1` in the assay. NO

Name the outcome recorded for `Cc1cc(C)n2c(Nc3c(C)cccc3C)c(CCc3ccccc3)nc2n1` in the assay. NO

Name the outcome recorded for `Nc1ccc(-c2nnc(-c3ccc(-c4ccccc4)cc3)o2)cc1` in the assay. YES

Name the outcome recorded for `CCOC(=O)c1cc(=O)c2ccc(OCc3ccccc3)cc2o1` in the assay. NO

Name the outcome recorded for CC(C)(C)C1CCC(NC(=O)c2cnn3c2NC(=C2CC2)C=C3C(F)F)CC1 (stereo not drawn) in the assay. NO

Name the outcome recorded for `CN(C(=N)N)c1ccc(/C=C2\C=Cc3ccccc32)cc1` in the assay. NO

Name the outcome recorded for COc1ccc(C(NC(=O)C2CCN(CCCc3ccccc3)CC2)c2cccs2)cc1 (stereo not drawn) in the assay. NO

Name the outcome recorded for CCOP(=O)(OCC)C(Cc1ccccc1)N=C(c1ccccc1)c1ccccc1 (stereo not drawn) in the assay. NO

Name the outcome recorded for `O=C(O)c1ccc(/C=N/NC(=O)c2ccc(Br)cc2)cc1` in the assay. NO

Name the outcome recorded for CC(C)(C(=O)N1CCC1(C)C(=O)NS(=O)(=O)c1ccc(Br)cc1)c1ccccc1 (stereo not drawn) in the assay. NO

Name the outcome recorded for `NC(=O)c1ccc(Nc2ccc3nonc3c2[N+](=O)[O-])cc1` in the assay. NO

Name the outcome recorded for `C[C@H]1CN([C@@H](C)CO)C(=O)CCCn2nncc2CO[C@@H]1CN(C)Cc1ccc(Oc2ccccc2)cc1` in the assay. NO

Name the outcome recorded for `CCCOc1ccc(-c2cccc(NS(=O)(=O)c3ccccc3)c2)nn1` in the assay. NO

Name the outcome recorded for `O=C(Nc1ccc2nc(SCC(=O)N3CCc4ccccc43)sc2c1)c1ccccc1F` in the assay. NO

Name the outcome recorded for CC1(C(=O)NCc2ccc3c(c2)OCO3)CCN1CCc1ccccc1 (stereo not drawn) in the assay. NO

Name the outcome recorded for `O=C(COc1ccccc1Cl)Nc1ccc2nc(SCC(=O)N3CCCC3)sc2c1` in the assay. NO

* * *

Target: ATP-dependent Clp protease proteolytic subunit (Bacillus subtilis (strain 168))
Experiment: qHTS Assay for Activators of ClpP; further: the source files actives as falling curves though it sought activators and does not explain the sign; nearly all actives have a fitted effect of over 65% in size
Settings: purified B. subtilis ClpP, FRET peptide cleavage, 20 min; series mostly up to 57.5 µM
Description: The Clp protease proteolytic subunit (ClpP) is the core unit of the Clp complex belonging to the peptidase family S14 that hydrolyzes protein into small peptides in the presence of ATP and magnesium. It is ubiquitously expressed and is the major protease in bacteria. […] Unlike common antibiotics that simply interfere with the essential enzyme activity, ADEP binding activates the ClpP core in the absence of the regulatory Clp-ATPases leading to uncontrolled proteolysis and eventually cell death. […]
Out of some 340,000 compounds screened, about 6,400 (1.9%) were called active. Roughly 4% stayed inconclusive and do not appear here. Calls follow the shape of the dose curve; as a rule, active = well fitted falling curve with a large enough effect; inconclusive = small, poorly fitted or top-dose-only effect; inactive = no such curve, though single readings can be large or run the other way. The sample holds actives, similar compounds and a random draw of the others, so the mix is not that of the screen.
Parameter call: string, one of active, inactive

Name the outcome recorded for CCOC(=O)N1CCC(NC(=O)C(C)n2c3ccccc3c3cnn(C)c(=O)c32)CC1 (stereo unspecified) in the assay. active

Name the outcome recorded for `Cc1ccc(-c2nn(-c3ccccc3)cc2CN(Cc2ccccc2)C(=O)CCC(=O)O)o1` in the assay. active

Name the outcome recorded for `O=C(COC(=O)c1ccccc1OCCOc1ccccc1)Nc1cccc(Br)c1` in the assay. inactive

Name the outcome recorded for `CN(C)CCCNC(=O)c1ccc2[nH]c3ccccc3c2c1` in the assay. active

Name the outcome recorded for `COc1ccc(-c2cc(NC=O)c3ncc(-c4ccccc4)n3c2)cc1OC` in the assay. inactive

Name the outcome recorded for `CCCCNC(=O)c1ccc(-n2c(=S)[nH]c3ccccc3c2=O)cc1` in the assay. inactive

* * *

Target: ATP-dependent Clp protease proteolytic subunit (Bacillus subtilis (strain 168)) (UniProt P80244)
Sequence (P80244 whole entry, looked up): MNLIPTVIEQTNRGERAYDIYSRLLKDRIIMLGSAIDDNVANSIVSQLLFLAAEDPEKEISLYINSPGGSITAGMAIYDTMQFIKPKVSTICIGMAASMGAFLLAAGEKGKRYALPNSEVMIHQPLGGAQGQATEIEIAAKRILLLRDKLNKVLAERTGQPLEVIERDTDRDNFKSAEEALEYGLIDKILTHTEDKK
Test: qHTS Assay for Activators of ClpP; further: the source files actives as falling curves though it sought activators and does not explain the sign; nearly all actives have a fitted effect of over 65% in size
Conditions: purified B. subtilis ClpP, FRET peptide cleavage, 20 min; series mostly up to 57.5 µM
About 6,400 (1.9%) of roughly 340,000 compounds were called active. Not shown: some 4% with an inconclusive outcome. Calls follow the shape of the dose curve; as a rule, active = well fitted falling curve with a large enough effect; inconclusive = small, poorly fitted or top-dose-only effect; inactive = no such curve, though single readings can be large or run the other way. What follows is part of a selection rich in actives, with near analogues and random picks from the rest.
Parameter call: string, one of class 1 (active), class 0 (inactive)

Name the outcome recorded for CC1(Oc2cccc(F)c2)CCN(Cc2ccccc2OC(F)F)C1 (stereo unspecified) in the assay. class 0

Name the outcome recorded for COc1ccc(NC(=O)C2Cc3c(-c4cccc(NC(C)=O)c4)ccnc3O2)cc1OC (stereo unspecified) in the assay. class 0

Name the outcome recorded for `CCCCc1c(-c2ccc(Cl)cc2)ncn1CCc1ccccc1OC` in the assay. class 0

Name the outcome recorded for `Cc1nn(-c2ccccc2)c(Cl)c1/C=C/C(=O)c1ccc(O)cc1` in the assay. class 0

Name the outcome recorded for CC(=O)Nc1cccc(-c2ccnc3c2CC(C)(C(=O)NCc2ccccc2)O3)c1 (stereo unspecified) in the assay. class 0

Name the outcome recorded for `NCCCNC(=S)NCCCN(Cc1ccc(Cl)cc1)c1ccc(Br)cn1` in the assay. class 0

Name the outcome recorded for `CN(C)CCNC(=O)c1ccc(-c2cn3c(-c4ccc(Oc5ccccc5)cc4)cnc3cn2)cc1` in the assay. class 0

Name the outcome recorded for `CCC(=O)Nc1c(S(=O)(=O)c2ccccc2)c2nc3ccccc3nc2n1Cc1ccccc1` in the assay. class 1

Name the outcome recorded for COc1ccc(C=C2CCC3C(CCCC34OCCO4)C2=O)cc1 (stereo unspecified) in the assay. class 0

Name the outcome recorded for `Cc1ccc(-c2nc(=N)sn2Cc2ccccc2)cc1` in the assay. class 0

Name the outcome recorded for CC1Cc2[nH][nH]c(=O)c2C(C2CC2)O1 (stereo unspecified) in the assay. class 0

* * *

Target: ATP-dependent Clp protease proteolytic subunit (Bacillus subtilis (strain 168)) (UniProt P80244)
Experiment: qHTS Assay for Activators of ClpP; further: the source files actives as falling curves though it sought activators and does not explain the sign; nearly all actives have a fitted effect of over 65% in size
Details: purified B. subtilis ClpP, FRET peptide cleavage, 20 min; series mostly up to 57.5 µM
About 6,400 (1.9%) of roughly 340,000 compounds were called active. Not shown: some 4% with an inconclusive outcome. The call rests on the fitted dose curve; in most records, active means well fitted falling curve with a large enough effect; inconclusive means small, poorly fitted or top-dose-only effect; inactive means no such curve, though single readings can be large or run the other way. For the sample, actives were picked, then their nearest neighbours and some compounds at random.
Parameter call: string, one of TRUE for active, FALSE for inactive

Name the outcome recorded for `COc1ccc(Cl)cc1NC(=O)NCC1CCN(Cc2ccccc2F)CC1` in the assay. FALSE

Name the outcome recorded for O=C(CC1Nc2ccccc2NC1=O)Nc1ccccc1 (configuration not stated) in the assay. FALSE

Name the outcome recorded for `CN(/N=C/c1ccccc1)C(=S)c1ccccc1` in the assay. FALSE

Name the outcome recorded for `O=C1NCC(c2ccccc2)(c2ccccc2)C(=O)N1` in the assay. FALSE

Name the outcome recorded for `COc1cc(/C=C/C(=O)O)cc(S(=O)(=O)Nc2ccccc2SC)c1OC` in the assay. FALSE

Name the outcome recorded for Cc1nn(CC(=O)NCC2CCCO2)c(=O)c2cc3ccccc3n12 (configuration not stated) in the assay. FALSE

Name the outcome recorded for `CN(CC(=O)O)C(=O)c1ccccc1` in the assay. FALSE

Name the outcome recorded for `O=C(Nc1cc(-c2nc3ncccc3o2)ccc1Cl)c1ccco1` in the assay. FALSE

Name the outcome recorded for `O=C(Nc1cccc(-c2nc3ncccc3o2)c1)c1ccco1` in the assay. FALSE

Name the outcome recorded for Cc1cc(=O)oc2cc(NC(=O)C3CC(=O)N(Cc4ccccc4)C3)ccc12 (configuration not stated) in the assay. FALSE

Name the outcome recorded for CCOC(=O)C(Cc1ccc(N)cc1)N1C(=O)c2ccccc2C1=O (configuration not stated) in the assay. FALSE

Name the outcome recorded for O=S1(=O)CC(N2CCSCC2)CN1Cc1cn(Cc2cccc(Cl)c2)nn1 (configuration not stated) in the assay. FALSE

Name the outcome recorded for `CCCNC(=S)N1CCC(NC(=O)C23CC4CC(CC(C4)C2)C3)CC1` in the assay. FALSE

Name the outcome recorded for CCC(C)CN1C(=O)CSCC1(C)C(=O)NCc1ccccc1 (configuration not stated) in the assay. FALSE

Name the outcome recorded for CC1=CC(C)(C)Nc2ccc(OC(=O)CN3C(=O)C4CCCCC4C3=O)cc21 (configuration not stated) in the assay. FALSE

Name the outcome recorded for `O=C(NCc1cccnc1)Nc1ccccc1F` in the assay. FALSE

Name the outcome recorded for `COc1ccc(-c2cc(C(=O)n3cnc4ccccc43)c3ccccc3n2)cc1` in the assay. TRUE

Name the outcome recorded for `CCOC(=O)[C@]12CCCC=C1N(Cc1ccc(Cl)cc1Cl)C(=O)[C@H](CC(=O)N1CCCCC1)C2` in the assay. FALSE

Name the outcome recorded for `COc1cc(OC)cc(-c2cc3nc(C4CCN(C(=O)OC(C)(C)C)CC4)cc(=O)n3[nH]2)c1` in the assay. TRUE

Name the outcome recorded for `CCOc1ccc(-c2cc3nc(C4CCN(C(=O)OC(C)(C)C)CC4)c(C(=O)Nc4cccc(CC)c4)cn3n2)cc1` in the assay. FALSE

Name the outcome recorded for `COc1cc(CNc2ncnc3c2ncn3[C@H]2CN(Cc3cccs3)C[C@@H](CO)O2)cc(OC)c1OC` in the assay. FALSE

Name the outcome recorded for O=C(COc1ccccc1Cl)N1N=C(c2cccs2)CC1c1ccco1 (configuration not stated) in the assay. FALSE
